TARGET_OR_TEST_SYSTEM: cholinesterase (ChE) in blood plasma (Coturnix japonica)
Sequence (A0A8C2YFF6 30-604): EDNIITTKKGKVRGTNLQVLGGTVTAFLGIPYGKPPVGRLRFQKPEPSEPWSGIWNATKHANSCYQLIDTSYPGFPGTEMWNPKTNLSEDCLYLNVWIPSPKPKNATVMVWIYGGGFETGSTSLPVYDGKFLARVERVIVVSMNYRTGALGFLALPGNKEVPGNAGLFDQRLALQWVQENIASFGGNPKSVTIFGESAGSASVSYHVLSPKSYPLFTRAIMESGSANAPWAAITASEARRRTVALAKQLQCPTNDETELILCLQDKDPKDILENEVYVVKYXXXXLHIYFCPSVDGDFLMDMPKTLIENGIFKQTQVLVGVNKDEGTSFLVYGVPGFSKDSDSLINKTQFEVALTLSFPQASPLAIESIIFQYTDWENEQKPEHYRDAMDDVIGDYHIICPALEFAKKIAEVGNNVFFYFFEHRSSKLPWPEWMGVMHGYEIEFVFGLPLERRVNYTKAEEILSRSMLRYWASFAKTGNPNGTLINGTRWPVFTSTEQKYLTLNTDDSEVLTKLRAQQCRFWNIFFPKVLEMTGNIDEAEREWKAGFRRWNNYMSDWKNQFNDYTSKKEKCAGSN
ASSAY: Inhibition rate constant (ki), blood plasma ChE (thiocholine substrates)
CONDITIONS_USED: blood plasma; range over the substrates AcTChI, BuTChI, PrTChI and PSA
QUANTITY: ki value, range

Worked cases, answers included:
>  <COMPOUND>
COP(=O)(OC)C(O)C(Cl)(Cl)Cl (stereo not shown) [Trichlorfon]

>  <ki value, range>
0.3451 to 0.9769 min⁻¹

$$$$
>  <COMPOUND>
CCOP(=S)(OCC)Oc1ccc([N+](=O)[O-])cc1 [Parathion]

>  <ki value, range>
0.4532 to 0.8233 min⁻¹

$$$$
>  <COMPOUND>
CCOC(=O)CC(SP(=S)(OC)OC)C(=O)OCC (stereo not shown) [Malathion]

>  <ki value, range>
0.0358 to 0.1756 min⁻¹

$$$$

Let us move to another entry and its ki value, range.
Summary for this compound, CNC(=O)ON=C(C)SC [Methomyl] : ki value, range is 0.1224 to 0.5674 min⁻¹

###

Items are presented alongside their recorded pIC50.
TARGET_OR_TEST_SYSTEM: carboxylesterase (CbE) in blood plasma
ASSAY: In vitro inhibition of blood plasma CbE by CB/OP pesticides (Ellman, PSA substrate)
CONDITIONS_USED: substrate PSA, 30 min 25°C, mean ± SE, read-out: Half maximal inhibitory concentration (IC50), PSA
// field semantics: pIC50 = negative decimal log of concentration (mol/L)

As a guide, the following entries are already answered.
>  <MOLECULE>
CCOC(=O)CC(SP(=S)(OC)OC)C(=O)OCC (stereo not shown)

>  <DATA_VALUE>
3.04

$$$$
>  <MOLECULE>
CNC(=O)ON=C(C)SC

>  <DATA_VALUE>
3.21

$$$$
>  <MOLECULE>
CCOP(=S)(OCC)Oc1ccc([N+](=O)[O-])cc1

>  <DATA_VALUE>
3.66

$$$$

// moving on: another record for pIC50
// pIC50 value for COP(=O)(OC)C(O)C(Cl)(Cl)Cl (stereo not shown) : 3.29
